Biological target: KRAS(G12D)/SOS1 (Homo sapiens, UniProt P01116, G12D)
Sequence (P01116 1-188 isoform P01116-2 G12D): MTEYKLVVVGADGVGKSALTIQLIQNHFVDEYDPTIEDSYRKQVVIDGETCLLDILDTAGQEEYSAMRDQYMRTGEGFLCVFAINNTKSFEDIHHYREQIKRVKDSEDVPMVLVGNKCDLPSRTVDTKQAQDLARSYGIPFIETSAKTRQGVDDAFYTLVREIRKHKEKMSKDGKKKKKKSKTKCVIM
Assay: KRAS(G12D)/SOS1 homogeneous time-resolved fluorescence (HTRF) assay
Details: absence of GTP, 4° C. for 3 hr
pIC50: −log10 of the molar value. Counter-ions that a name gives are not always drawn.
metric: pIC50

In the examples that follow, each entry is paired with its recorded pIC50.
compound="C#Cc1cccc2cc(O)cc(-c3nc(OC)c4c(N5CC6CCC(C5)N6)nc(OCC5(CN6CCN(CC7CCN(c8ccc9c(c8)CN(C8CCC(=O)NC8=O)C9=O)CC7)CC6)CC5)nc4c3F)c12 (centres unmarked)" metric=pIC50 testvalue="> 7.00"
compound="C#Cc1cccc2cccc(-c3ncc4c(N5CC6CCC(C5)N6)nc(OCC5(CN6CCN(Cc7ccc8c(c7)CN(C7CCC(=O)NC7=O)C8=O)CC6)CC5)nc4c3F)c12 (centres unmarked) [Compound 31, formate]" metric=pIC50 testvalue="> 7.00"
compound="C#Cc1cccc2cccc(-c3ncc4c(N5CC6CCC(C5)N6)nc(OCC5(CN(C)CC6CCN(c7ccc8c(c7)C(=O)N(C7CCC(=O)NC7=O)C8=O)CC6)CC5)nc4c3F)c12 (centres unmarked)" metric=pIC50 testvalue="> 7.00"
compound="CN1C[C@H](N2CCN(CC3CCN(c4ccc5c(c4)C(=O)N(C4CCC(=O)NC4=O)C5=O)CC3)CC2)C[C@@H]1COc1nc(N2CC3CCC(C2)N3)c2cnc(-c3cc(O)cc4ccccc34)c(F)c2n1 (some centres unmarked)" metric=pIC50 testvalue="> 7.00"

## Input Indicate its recorded pIC50; the compound in question is Cc1ncsc1-c1ccc(CNC(=O)C2CC(O)CN2C(=O)C(NC(=O)C2CCN([C@H]3C[C@@H](COc4nc(N5CC6CCC(C5)N6)c5cnc(-c6cccc7cccc(Cl)c67)cc5n4)N(C)C3)CC2)C(C)(C)C)cc1 (stereo in doubt)
## Output < 6.00

====

Target: KRAS(G12D) (Homo sapiens, UniProt P01116, G12D)
Construct: endogenous in cells; host or cells: SW1990
Sequence (P01116 1-188 isoform P01116-2 G12D): as above
Experiment: SW1990 WB assay (degradation DC50, Dmax)
Format: cell-based
Conditions: Western blot, SW1990 cells
metric: DC50

In the examples that follow, each entry is paired with its recorded DC50.
molecule="C#Cc1c(F)ccc2cc(O)cc(-c3nc(OC)c4c(N5CC6CCC(C5)N6C(=O)C(F)(F)F)nc(OCC5(CN6CCN(CC7CCN(c8ccc9c(c8)CN(C8CCC(=O)NC8=O)C9=O)CC7)CC6)CC5)nc4c3F)c12 (stereo not shown)" testvalue="100 to 1000 nM"
molecule="C#Cc1c(F)ccc2cc(O)cc(-c3ncc4c(N5CC6CCC(C5)N6)nc(OCC5(CN6CCC(N7CCC(c8ccc9c(c8)CN(C8CCC(=O)NC8=O)C9=O)CC7)CC6)CC5)nc4c3F)c12 (stereo not shown)" testvalue="< 100 nM"
molecule="C#Cc1cccc2cc(O)cc(-c3ncc4c(N5CC6CCC(C5)N6)nc(OCC5(CN6CCN(CC7CCN(c8ccc(NC9CCC(=O)NC9=O)cc8)CC7)CC6)CC5)nc4c3F)c12 (stereo not shown)" testvalue="> 1000 nM"
molecule="C#Cc1cccc2cc(O)cc(-c3ncc4c(N5CC6CCC(C5)N6)nc(OCC5(CN6CCN(CC7CCN(c8ccc9c(c8)CN(C8CCC(=O)NC8=O)C9=O)CC7)[C@@H](C7CC7)C6)CC5)nc4c3F)c12 (stereo partly shown)" testvalue="> 1000 nM"
molecule="C#Cc1c(F)ccc2cc(O)cc(-c3ncc4c(N5CC6CCC(C5)N6)nc(OCC5(CN6CCC(C7CCN(c8ccc9c(c8)CN(C8CCC(=O)NC8=O)C9=O)CC7)CC6)CC5)nc4c3F)c12 (stereo not shown)" testvalue="100 to 1000 nM"

## Input Indicate its recorded DC50; the molecule in question is C#Cc1cccc2cc(O)cc(-c3ncc4c(N5CC6CCC(C5)N6)nc(OCC5(CN6CCN(CC7CCN(c8ccc9c(c8)C(=O)N(C8CCC(=O)NC8=O)C9=O)CC7)CC6)CC5)nc4c3F)c12 (stereo not shown)
## Output < 100 nM

## Input Indicate its recorded DC50; the molecule in question is C#Cc1c(F)ccc2cc(O)cc(-c3ncc4c(N5CC6CCC(C5)N6)nc(OCC5(CN6CCC(CN7CCN(c8ccc9c(c8)CN(C8CCC(=O)NC8=O)C9=O)CC7)CC6)CC5)nc4c3F)c12 (stereo not shown)
## Output < 100 nM

## Input Indicate its recorded DC50; the molecule in question is C#Cc1c(F)ccc2cc(O)cc(-c3nc(O)c4c(N5CC6CCC(C5)N6)nc(OCC5(CN6CCN(CC7CCN(c8ccc9c(c8)CN(C8CCC(=O)NC8=O)C9=O)CC7)CC6)CC5)nc4c3F)c12 (stereo not shown)
## Output > 1000 nM

## Input Indicate its recorded DC50; the molecule in question is C#Cc1cccc2cc(O)cc(-c3ncc4c(N5CC6CCC(C5)N6)nc(OCC5(CN6CCN(CC7CCN(c8ccc9c(c8)CN(C8CCC(=O)N(C)C8=O)C9=O)CC7)CC6)CC5)nc4c3F)c12 (stereo not shown)
## Output > 1000 nM

## Input Indicate its recorded DC50; the molecule in question is C#Cc1cccc2cc(O)cc(-c3ncc4c(N5CC6CCC(C5)N6)nc(OCC5(CN(C)CC6CCN(c7ccc8c(c7)CN(C7CCC(=O)NC7=O)C8=O)CC6)CC5)nc4c3F)c12 (stereo not shown)
## Output 100 to 1000 nM

## Input Indicate its recorded DC50; the molecule in question is C#Cc1c(F)ccc2cc(O)cc(-c3ncc4c(N5CC6CCC(C5)N6)nc(OCC5(CN6CCN(C7CCN(c8ccc9c(c8)CN(C8CCC(=O)NC8=O)C9=O)CC7)CC6)CC5)nc4c3F)c12 (stereo not shown)
## Output < 100 nM

## Input Indicate its recorded DC50; the molecule in question is C#Cc1cccc2cc(O)cc(-c3ncc4c(N5CC6CCC(C5)N6)nc(OCC5(CN6CCC(C(=O)N7CCN(c8ccc9c(c8)CN(C8CCC(=O)NC8=O)C9=O)CC7)CC6)CC5)nc4c3F)c12 (stereo not shown)
## Output 100 to 1000 nM
